Every entry's value here was drawn from paper PMC11157767.

Assay: in vitro
Details: mouse, brain homogenate
The following compounds are shown together with reported fraction unbound values.

{"compound": "C[C@@H](Oc1cc(-c2cnn(C3CCNCC3)c2)cnc1N)c1c(Cl)ccc(F)c1Cl", "fraction unbound": 0.0106}
{"compound": "COc1cc2nccc(Oc3ccc(NC(=O)C4(C(=O)Nc5ccc(F)cc5)CC4)cc3)c2cc1OC [Cabozantinib]", "fraction unbound": 0.0025}

====

The following compounds are shown together with reported AUC values.
Assay: Plasma pharmacokinetics in CD-1 nude mice (NCA)
Format: in vivo, mouse
Conditions: CD-1 nude, mouse, plasma, 25 mg/kg; read-out: total plasma AUC

{"query.smiles": "C[C@@H](Oc1cc(-c2cnn(C3CCNCC3)c2)cnc1N)c1c(Cl)ccc(F)c1Cl", "AUC": "64700 ng·h/mL"}
{"query.smiles": "CNC(=O)c1ccc(-c2cnc3ncc(Cc4ccc5ncccc5c4)n3n2)cc1F", "AUC": "16400 ng·h/mL"}

====

Assay: Brain pharmacokinetics in CD-1 nude mice (NCA)
Type: in vivo, mouse
Conditions: CD-1 nude, mouse, 25 mg/kg; Brain; NCA estimate

{"query.smiles": "CNC(=O)c1ccc(-c2cnc3ncc(Cc4ccc5ncccc5c4)n3n2)cc1F", "CL/F (mL/min/kg)": 330}

====

Test: Brain pharmacokinetics in CD-1 nude mice (NCA)
Assay type: in vivo, mouse
Conditions: CD-1 nude, mouse, 25 mg/kg; Brain; NCA estimate
Procedure: Fig. 2 TFG-MET-driven mouse model and pharmacokinetic profiles of MET inhibitors. a Schematic illustrating the method and utilized vectors to induce CRISPR/Cas9-mediated Trp53 deletion and TFG-MET overexpression following in utero electroporations. b H&E staining and Immunohistochemical analysis of a tumor generated by in utero electroporation, visualized by the HA-tag of TFG-MET. […] Three mice were analyzed per compound and time point. Error bars indicate the standard deviation. […]

{"query.smiles": "CNC(=O)c1ccc(-c2cnc3ncc(Cc4ccc5ncccc5c4)n3n2)cc1F", "half-life [h]": 2.34}

====

The following molecules are shown together with reported half-life values.
Test: Plasma pharmacokinetics in CD-1 nude mice (NCA)
Assay type: in vivo, mouse
Settings: CD-1 nude, mouse; Plasma; NCA estimate

{"query.smiles": "C[C@@H](Oc1cc(-c2cnn(C3CCNCC3)c2)cnc1N)c1c(Cl)ccc(F)c1Cl", "unit.spec": "min", "half-life": 618}
{"query.smiles": "CNC(=O)c1ccc(-c2cnc3ncc(Cc4ccc5ncccc5c4)n3n2)cc1F", "unit.spec": "min", "half-life": 136}

====

The following compounds are shown together with reported AUC(0-inf) values.
Experiment: Plasma pharmacokinetics in CD-1 nude mice (NCA)
Type: in vivo, mouse
Details: CD-1 nude, mouse; Plasma; NCA estimate
endpoint.label: AUC(0-inf) (ng·h/mL)

{"query.smiles": "C[C@@H](Oc1cc(-c2cnn(C3CCNCC3)c2)cnc1N)c1c(Cl)ccc(F)c1Cl", "endpoint.label": "AUC(0-inf)", "unit.spec": "ng·h/mL", "observed": 64700}
{"query.smiles": "CNC(=O)c1ccc(-c2cnc3ncc(Cc4ccc5ncccc5c4)n3n2)cc1F", "endpoint.label": "AUC(0-inf)", "unit.spec": "ng·h/mL", "observed": 16400}

====

Experiment: Brain pharmacokinetics in CD-1 nude mice (NCA)
Type: in vivo, mouse
Details: CD-1 nude, mouse; Brain; NCA estimate; read-out: Kp,last
The following molecules are shown together with reported Kp values.

{"query.smiles": "CNC(=O)c1ccc(-c2cnc3ncc(Cc4ccc5ncccc5c4)n3n2)cc1F", "Kp": 0.0765}
{"query.smiles": "C[C@@H](Oc1cc(-c2cnn(C3CCNCC3)c2)cnc1N)c1c(Cl)ccc(F)c1Cl", "Kp": 0.155}
